experimental_protocol: Ratio of unbound AUC in rat brain to plasma at 45 mg/kg, po administered as single dose
Type: ADME, organism-based
attribute_measured: Kp uu

// Kp uu lookup, compound = Cc1ccc(Cc2cc3c(=O)n([C@H]4CCCC[C@@H]4O)cnc3c3ccccc23)cn1 , result: 0.24

* * *

experimental_protocol: Unbound plasma concentration in iv or po dosed mouse
Assay type: ADME, organism-based
attribute_measured: fraction unbound
Please give the numeric answer without any surrounding text.

// fraction unbound lookup, compound = Cc1cc2c(cc1Cc1ccc(-c3cocn3)cc1)C(=O)N([C@H]1CCOC[C@@H]1O)C2 , result: 0.013

* * *

Test system: MDR1
experimental_protocol: Efflux ratio of permeability from basolateral to apical side over apical to basolateral side in MDCK1 cells expressing MDR1
Format: ADME, cell-based, Canis lupus familiaris
condition: dog, MDCK-MDR1
attribute_measured: efflux ratio
Please give the numeric answer without any surrounding text.

Item Cc1cc2c(cc1Cc1ccc(-n3cccn3)cc1)C(=O)N([C@H]1CCOC[C@@H]1O)CC2 was tested on MDR1; the reported efflux ratio is 11

Item Cc1cc2c(cc1Cc1ccc(-c3cscn3)cc1)C(=O)N([C@H]1CCOC[C@@H]1O)C2 was tested on MDR1; the reported efflux ratio is 11

Item Cc1cc2c(cc1Cc1ccc(-n3ccnc3)cc1)C(=O)N([C@H]1CCOC[C@@H]1O)C2 was tested on MDR1; the reported efflux ratio is 53

Item Cc1nc(-c2ccc(Cc3cc4c(cc3C)CN([C@H]3CCOC[C@@H]3O)C4=O)cc2)co1 was tested on MDR1; the reported efflux ratio is 11

Item Cc1cc2c(cc1Cc1ccc(-c3cscn3)cc1)C(=O)N([C@H]1CCOC[C@@H]1O)CC2 was tested on MDR1; the reported efflux ratio is 12

* * *

experimental_protocol: Ratio of unbound Cmax in rat brain assessed as convulsions at 45 mg/kg, po administered as single dose to unbound brain concentration for agonist activity at muscarinic acetylcholine receptor M1 in C57BL/6 mouse assessed as required to show 2 fold increase in IP1 accumulation in striatum at 1 to 10 mg/kg, sc
Assay type: organism-based
Please go through the items and note down their selectivity ratio.
Please give the numeric answer without any surrounding text.

// selectivity ratio lookup, compound = Cc1ccc(Cc2cc3c(=O)n([C@H]4CCCC[C@@H]4O)cnc3c3ccccc23)cn1 , result: 33

// selectivity ratio lookup, compound = Cc1cc2c(cc1Cc1ccc(-c3cocn3)cc1)C(=O)N([C@H]1CCOC[C@@H]1O)C2 , result: 20

* * *

measured_target: UniProt P08173
Sequence (P08173 whole entry): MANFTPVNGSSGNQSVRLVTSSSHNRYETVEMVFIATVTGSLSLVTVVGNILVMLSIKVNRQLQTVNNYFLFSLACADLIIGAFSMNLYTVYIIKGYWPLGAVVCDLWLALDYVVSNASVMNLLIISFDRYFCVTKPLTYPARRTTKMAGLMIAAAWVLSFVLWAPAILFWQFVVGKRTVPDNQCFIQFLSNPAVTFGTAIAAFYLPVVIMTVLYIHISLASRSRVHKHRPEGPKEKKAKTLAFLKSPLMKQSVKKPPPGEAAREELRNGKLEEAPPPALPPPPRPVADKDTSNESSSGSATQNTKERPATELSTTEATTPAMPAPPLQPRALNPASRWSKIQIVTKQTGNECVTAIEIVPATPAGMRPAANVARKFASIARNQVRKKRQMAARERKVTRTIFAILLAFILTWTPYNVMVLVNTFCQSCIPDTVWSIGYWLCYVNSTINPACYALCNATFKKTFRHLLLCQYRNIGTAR
experimental_protocol: Agonist activity at human muscarinic acetylcholine receptor M4 expressed in CHO cells assessed as increase in cAMP accumulation after 2 hrs by cAMP-Glo assay
pEC50: −log10 of the molar value.
attribute_measured: pEC50

// pEC50 lookup, compound = Cc1cc2c(cc1Cc1ccc(-c3cocn3)cc1)C(=O)N([C@H]1CCOC[C@@H]1O)C2 , result: < 5.00
